Catalogue of compounds with associated inhibition
System: BasE (2,3-dihydroxybenzoate-AMP ligase), Acinetobacter baumannii ATCC 17978
Assay: inhibitors of A. baumannii BasE – biochemical, Acinetobacter baumannii ATCC 17978, fluorescence polarization, primary screen (AID 485350);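 further: 0% = negative plate control signal and 100% = positive plate control signal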
Details: purified BasE, fluorescence polarization binding displacement; stronger effect = higher value; concentration not given here
Screen size: about 84,000 compounds; about 95 (0.1%) were called active. This excerpt belongs to a sample that is enriched for actives.

compound | target.entity | inhibition (%)
O=C(NCCSc1ncc(-c2ccccc2)[nH]1)c1ccco1 | BasE (2,3-dihydroxybenzoate-AMP ligase), Acinetobacter baumannii ATCC 17978 | -0.84
CCOC(=O)c1cc(-c2ccc(S(=O)(=O)N(C)Cc3cnn(-c4ccccc4)c3)s2)on1 | BasE (2,3-dihydroxybenzoate-AMP ligase), Acinetobacter baumannii ATCC 17978 | -0.03
CC(C)C(NC(=O)C1CCCCC1)C(=O)O (configuration not stated) | BasE (2,3-dihydroxybenzoate-AMP ligase), Acinetobacter baumannii ATCC 17978 | 3.11
COc1ccc(-c2noc(C3CCN(C(=O)OC(C)(C)C)CC3)c2C(=O)O)cc1 | BasE (2,3-dihydroxybenzoate-AMP ligase), Acinetobacter baumannii ATCC 17978 | 1.39
C(=C\c1ccccc1)/CNCCCN1CCOCC1 | BasE (2,3-dihydroxybenzoate-AMP ligase), Acinetobacter baumannii ATCC 17978 | 0.89
CC12CCC(=O)N1C(C(=O)OCc1cc(=O)n3cc(Br)ccc3n1)CS2 (configuration not stated) | BasE (2,3-dihydroxybenzoate-AMP ligase), Acinetobacter baumannii ATCC 17978 | 3.92
Cc1cc2nc(N(C)C)c3ccccc3n2n1 | BasE (2,3-dihydroxybenzoate-AMP ligase), Acinetobacter baumannii ATCC 17978 | 2.28
